Would you mind telling me the reported IC50 of each entry?
Biological target: HLA-A*02:01
Assay: IEDB peptide-MHC binding, cellular MHC/competitive/fluorescence; bounds were set here for any values at or beyond the usual limits of such assays
Settings: source organism: Vaccinia virus WR
Give the value, in units of µM, as a plain number.

Prompt: Fill blank: measured IC50 of the sequence TAFFNTCKPT is ____.
Completion: 37.9

Prompt: Now give it for NVSRVVECLT too.
Completion: 9.45

Prompt: Another: DLTALLSCI
Completion: 13.5

Prompt: Cool, now DITNILGGV
Completion: 11.4

Prompt: // same read-out, input: TLQKVLHVT
Completion: 5.79

Prompt: Another sequence to look at: DTSNNIAEYI
Completion: 6.29

====

Assign IC50 to each entry below.
Molecular target: HLA-A*02:01
Assay: IEDB peptide-MHC binding, cellular MHC/competitive/fluorescence; bounds were set here for any values at or beyond the usual limits of such assays
Settings: source organism: Vaccinia virus WR
Unit µM implied. Number only.

Prompt: // IC50 lookup, key: FTNKRTRGPL
Completion: 16.2

Prompt: Queued: CVRNLEELTT
Completion: 45.2

Prompt: Repeat for the following sequence: TIESAKTKI
Completion: 15.2

Prompt: Field entry: DLSKLSKDV
Completion: 6.36

Prompt: Okay, and IASAPQQLCT ?
Completion: 36.5

Prompt: Now consider NMDKVSAQNI and answer again.
Completion: 16

Prompt: One more sequence: ETDRENAII
Completion: 67.3

Prompt: Follow-up item: VISTIANSNI
Completion: 7.8

Prompt: Entry to check: ELTTLSRHI
Completion: 18.6

Prompt: Next record, please: TVTNLISETL
Completion: 16.6

Prompt: Another sequence: DAAVAVAAA
Completion: 5.2

Prompt: Similarly, KLIIDREVV ?
Completion: 6.63

Prompt: Repeat with RTWKVLSIMA
Completion: 8.48

Prompt: Item: CTVPTMNNA
Completion: 16.1

Prompt: Also AIMFKDDNII ?
Completion: 43.8

Prompt: What do we get for VAVNKSNKPL ?
Completion: 45

Prompt: Also need IIHTGCSQVM , thanks.
Completion: 12.4

Prompt: Consider next the sequence NTCLRCSKL in the same way.
Completion: 24.6

Prompt: Then what about the sequence YTLIYRQLT ?
Completion: 28.5

Prompt: Could you do the same for VIYPNFSKA , please?
Completion: 14.2

Prompt: Then what about the sequence PLSINVSGV ?
Completion: 6.54

Prompt: Quick one: NIGIVLSNT
Completion: 14.6

Prompt: What about EATYHIIIV ?
Completion: 11

Prompt: Request: DMPSLSNGL
Completion: 47.2

Prompt: Consider next the sequence MISTYPGNT in the same way.
Completion: 22.1

Prompt: Moving on to the next sequence: IVSLCPTKKL
Completion: 9.97

Prompt: Would you mind doing IVNNFITKEI as well?
Completion: 13.7

Prompt: Input IIKKNDIVRV
Completion: 48.4

Prompt: What would you report for DVEDLLSYYV ?
Completion: 5.16

Prompt: Now the sequence PTEMVDVSM
Completion: 47.4

Prompt: Same for YLSKEDRIIT
Completion: 11.9

Prompt: Try this sequence too: KIAISSLNKL
Completion: 36.6

Prompt: Now consider VIVENDNVI and answer again.
Completion: 25.6

Prompt: Next record, please: KTPVIVVPVI
Completion: 12

Prompt: Next: GIKNLKSLL
Completion: 54.5

Prompt: Follow-up item: IVALTIMGVI
Completion: 5.77

Prompt: Entry to check: SINSATESDA
Completion: 32.7

Prompt: Record: PIKFIAEFL
Completion: 8.24

Prompt: And for RTRGPLGIL ?
Completion: 51.3

Prompt: What about EQEIESLEAT ?
Completion: 42.7

Prompt: Consider next the sequence IIERSKKFI in the same way.
Completion: 5.31

Prompt: And then LLTHGADPNA , what is it?
Completion: 11.2

Prompt: Consider next the sequence KTKISVEKI in the same way.
Completion: 26.9

Prompt: // next record TVELMNLKEL
Completion: 50.6

Prompt: Next up: IVPDIKLDA
Completion: 42.2

Prompt: Here is the next sequence: STAVNEEWLT
Completion: 25.4

Prompt: Now give it for AIDFGNGADL too.
Completion: 46.8

Prompt: Next sequence up: TIGNQLYLT
Completion: 18.3

Prompt: Also check TMKAIEKDRL
Completion: 17.5

Prompt: Query FASGNSIDDI next
Completion: 9.21

Prompt: Then what about the sequence SIGFEARIV ?
Completion: 7.3

Prompt: And then IVDKFGKNHI , what is it?
Completion: 11.2

Prompt: Param item: KIKQTGINNV
Completion: 7.3

Prompt: // same read-out, input: EVFHCMDILT
Completion: 14.8

Prompt: Entry to check: PLITLTNVV
Completion: 6.67
